# target or test system: T1, human TNFR1 (recombinant, R&D Systems cat no. 636-R1/CF, biotinylated) (human, UniProt P19438 30-211, limits assumed, biotinylated with EZ-Link NHS-LC-LC-biotin)
# T1 construct: it is not tied to the BIAcore reagent; also called p55; hTNFR1
# T1 sequence (looked up): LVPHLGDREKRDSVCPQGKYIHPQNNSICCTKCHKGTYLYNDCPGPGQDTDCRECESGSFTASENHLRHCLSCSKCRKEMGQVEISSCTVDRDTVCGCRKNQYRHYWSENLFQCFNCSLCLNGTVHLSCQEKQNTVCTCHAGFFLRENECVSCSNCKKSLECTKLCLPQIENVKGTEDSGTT
# protocol summary: BIAcore T100, biotinylated human TNFR1 on chip
# Experimental: Furthermore, the affinity and potency of the purified fusion molecules were determined using a BIAcore T100 and the MRC5 cell assay, respectively. The BIAcore T100 is a highly sensitive BIAcore version ideally suited for determination of high affinity binders (Papalia et al., Anal Biochem. 359, p 112 (2006)). Biotinylated, human TNFR1 was coated on the chip and each of the twelve AlbudAb fusions were passed over this surface at four different concentrations (2, 10, 50 and 250 nM). […]

binder	Kd / pM
DMS0115 (bispecific antibody, anti-TNFR1 dAb / AlbudAb in-line fusion) EVQLLESGGGLVQPGGSLRLSCAASGFTFVKYSMGWVRQAPGKGLEWVSQISNTADRTYYAHSVKGRFTISRDNSKNTLYLQMNSLRAEDTAVYYCAIYTGRWVPFEYWGQGTLVTVSSASTSGPSDIQMTQSPSSLSASVGDRVTITCRASRPIGTTLSWYQQKPGKAPKLLILWNSRLQSGVPSRFSGSGSGTDFTLTISSLQPEDFATYYCAQAGTHPTTFGQGTKVEIKR	160
DMS0111 (bispecific antibody, anti-TNFR1 dAb / AlbudAb in-line fusion) EVQLLESGGGLVQPGGSLRLSCAASGFTFVKYSMGWVRQAPGKGLEWVSQISNTADRTYYAHSVKGRFTISRDNSKNTLYLQMNSLRAEDTAVYYCAIYTGRWVPFEYWGQGTLVTVSSASTDIQMTQSPSSLSASVGDRVTITCRASRPIGTTLSWYQQKPGKAPKLLILWNSRLQSGVPSRFSGSGSGTDFTLTISSLQPEDFATYYCAQAGTHPTTFGQGTKVEIKR	170
DMS0124 (bispecific antibody, anti-TNFR1 dAb / AlbudAb in-line fusion) EVQLLESGGGLVQPGGSLRLSCAASGFTFVKYSMGWVRQAPGKGLEWVSQISNTADRTYYAHSVKGRFTISRDNSKNTLYLQMNSLRAEDTAVYYCAIYTGRWVPFEYWGQGTLVTVSSASGGGGSGGGGSGGGGSDIQMTQSPSSLSASVGDRVTITCRASQWIGSQLSWYQQKPGKAPKLLIMWRSSLQSGVPSRFSGSGSGTDFTLTISSLQPEDFATYYCAQGLMKPMTFGQGTKVEIKR	77
DMS0118 (bispecific antibody, anti-TNFR1 dAb / AlbudAb in-line fusion) EVQLLESGGGLVQPGGSLRLSCAASGFTFVKYSMGWVRQAPGKGLEWVSQISNTADRTYYAHSVKGRFTISRDNSKNTLYLQMNSLRAEDTAVYYCAIYTGRWVPFEYWGQGTLVTVSSASTSGPSDIQMTQSPSSLSASVGDRVTITCRASQWIGSQLSWYQQKPGKAPKLLIMWRSSLQSGVPSRFSGSGSGTDFTLTISSLQPEDFATYYCAQGLMKPMTFGQGTKVEIKR	76
